Assay Notes: chemical genetic growth profiling, strain panel (AID 1159580);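 note: tested at 20 µM; growth read once vehicle control cultures reached saturation at 30 °C; 1 = growth at the plate median or of vehicle wells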
Protocol Conditions: S. cerevisiae deletion strains, growth OD, locus YCL061C, strain MRC1, stronger effect = lower value
Among all 5,500 compounds or so, about 2,000 (36%) were called active. About 18% were inconclusive and are not listed. The list shows a part of the results.
Value Kind: normalized growth

Completed entries (count: 2):
Q: Returns the measured normalized growth for the input molecule. Input: C[C@@H]1O[C@@H](OC[C@H]2OC(Oc3c(-c4ccc(O)c(O)c4)oc4cc(O)cc(O)c4c3=O)[C@H](O)[C@@H](O)[C@@H]2O)[C@H](O)[C@H](O)[C@H]1O (stereo partly drawn)
Result: 1.01 (inactive)

Q: Requested read-out: normalized growth. Entry: O=c1c(O)c(-c2ccc(O)cc2O)oc2cc(O)cc(O)c12
Result: 0.976 (inactive)

Let us move to another entry and its normalized growth.
Q: Please look up its normalized growth: COc1ccc(-c2cc(=O)c3c(O)cc(O[C@@H]4O[C@H](CO[C@H]5O[C@H](C)[C@@H](O)[C@H](O)[C@@H]5O)[C@@H](O)[C@H](O)[C@H]4O)cc3o2)cc1O
Result: 1.01 (inactive)

====

Assay Notes: chemical genetic growth profiling, strain panel (AID 1159580)
Protocol Conditions: S. cerevisiae deletion strains, growth OD, locus YOR083W, strain WHI5, stronger effect = lower value
Among all 5,500 compounds or so, about 2,000 (36%) were called active. Inconclusive results (about 18%) are left out. The list shows a part of the results. Where a SMILES comes first, the peptide text is derived from it.
Some compounds, each annotated with its measured normalized growth.
Reply: number alone, nothing else.

Q: Field request: normalized growth | item: CC1CC[C@@]2(OC1)O[C@H]1CC3C4CC[C@@H]5C[C@@H](O)CC[C@]5(C)C4CC[C@]3(C)[C@H]1[C@@H]2C (some centres undefined)
Result: 1.02

Q: Which normalized growth value is on record for COC1=CC(=O)C(O)=C/C1=C\C=C\c1ccccc1 ?
Result: 0.0654

Further cases:
Q: Need normalized growth of CC1CC[C@]2(NC1)O[C@H]1CC3C4CC[C@H]5C[C@@H](O)CC[C@]5(C)C4CC[C@]3(C)[C@H]1[C@@H]2C (some centres undefined) , thanks.
Result: 0.198

Q: Can you look up the measured normalized growth of COC(=O)[C@H](Cc1ccccc1)NC(=O)[C@@H](N)CC(=O)O (H-Asp-Phe-OMe) for me?
Result: 1.02

====

Assay Notes: chemical genetic growth profiling, strain panel (AID 1159580)
Protocol Conditions: S. cerevisiae deletion strains, growth OD, locus YBR229C, strain ROT2
The campaign covered roughly 5,500 compounds. About 2,000 (36%) were called active. Another 18% or so got no clear call; they are omitted. No stated cut-off is given here; in the data, active means normalized growth mostly below about 0.91 (no sharp cut-off); inconclusive means no clear call, values can overlap the other calls; inactive means mostly above about 0.92. The list shows a part of the results.
The reply should be one of these categories: active, inactive

Solved entries:
Q: Dear all, I need the recorded test outcome for CC(C)c1c(O)c(-c2cc3c(c(C(C)C)c2O)CCC2C(C)(C)CCC[C@]32C)cc2c1CCC1C(C)(C)CCC[C@]21C (stereo partly specified) , thank you.
Result: inactive

Q: What outcome does the record of this test show for CCCC(C)(COC(N)=O)COC(=O)NC(C)C (stereo unspecified) ?
Result: inactive

Q: Answer briefly: the call reported for COc1ccc2c(c1C(C)C)CCC1C(C)(C)C(=O)CCC21C (stereo unspecified) in this assay.
Result: inactive

Q: Test call, this molecule: C[C@]12CCC3c4ccc(O)cc4CCC3C1CC[C@@H]2O (stereo partly specified)
Result: inactive

Q: For CCOC(=O)c1sc(S(C)(=O)=O)c2c1CCCC2O (stereo unspecified) , what call appears in the results of this test?
Result: inactive

Q: Tell me the assay call for CC[n+]1c(-c2ccccc2)c2cc(N)ccc2c2ccc(N)cc21 please.
Result: inactive

New cases:
Q: Please share the test call associated with CC(C)c1c(O)ccc2c1CCC1C(C)(C)CCC[C@]21C (stereo partly specified) .
Result: active

Q: Write down the call the test reported for this molecule. Item: O=C1NN=C2C3CC4CC12CC1(C3)C(=O)NN=C41
Result: inactive

Q: Tell me the assay call for COc1ccccc1/C=C\C(=O)O please.
Result: inactive

Q: Name the outcome recorded for COC(=O)CSc1ncnc2c(C)csc12 in the assay.
Result: inactive

Q: Please share the test call associated with CC12CCC3c4ccc(OC(=O)c5ccccc5)cc4CCC3C1CCC2O (stereo unspecified) .
Result: inactive

====

Measured normalized growth values are reported for all entries that follow.
Assay Notes: chemical genetic growth profiling, strain panel (AID 1159580);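 note: tested at 20 µM; growth read once vehicle control cultures reached saturation at 30 °C; 1 = growth at the plate median or of vehicle wells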
Protocol Conditions: S. cerevisiae deletion strains, growth OD, locus YER111C, strain swi4, stronger effect = lower value
Hit rate of the full screen: of about 5,500 compounds, about 2,000 (36%) were called active. Roughly 18% stayed inconclusive and do not appear here. The list shows a part of the results.
Lab note: jot the number down without any unit.

Completed entries (count: 5):
Q: Any idea what its normalized growth is? The compound is CC1CCC2(OC1)OC1CC3C4CC[C@H]5C[C@@H](O)CC[C@]5(C)C4CC(=O)[C@]3(C)C1C2C (stereo partly specified)
Result: 1.01

Q: Return reported normalized growth; argument: C=C1CCC2(OC1)OC1CC3C4CC=C5CC(O)CC(O)C5(C)C4CCC3(C)C1C2C (stereo unspecified)
Result: 0.958

Q: Given the compound C[C@]12CCC3c4ccc(OS(=O)(=O)O)cc4CCC3C1CC[C@H]2O (stereo partly specified) , what is its reported normalized growth?
Result: 0.965

Q: If you can, please state the reported normalized growth value of COc1ccc2c(c1)CCC1C2CC[C@@]2(C)C1CC[C@@H]2O (stereo partly specified) .
Result: 0.939

Q: // normalized growth lookup, key: COc1cc2occc2c2oc(=O)ccc12
Result: 1.02

***
Q: Consider the compound COC(=O)[C@]1(C)CCC[C@]2(C)c3ccc(C(C)C)cc3C(=O)CC12 (stereo partly specified) and give its measured normalized growth.
Result: 0.956

Q: Find the recorded normalized growth belonging to O=c1c(O)c(-c2ccc(O)c(O)c2)oc2c(O)c(O)cc(O)c12 and report it.
Result: 0.942

Q: So what does the record say about normalized growth for COC1=CC(=O)C(C(=O)c2ccccc2)=CC1=O ?
Result: 0.973

Q: Please look up its normalized growth: CC(C)c1c(O)ccc2c1CCC1[C@@](C)(C=O)CCC[C@]21C (stereo partly specified)
Result: 0.999

Q: I have this compound here, O=c1ccc2c(O)c3ccoc3cc2o1 , and I need its recorded normalized growth.
Result: 0.995

Q: I have this compound here, COc1ccccc1/C=C\C(=O)O , and I need its recorded normalized growth.
Result: 0.993

====

Overview of reported normalized growth across a group of molecules:
Assay Notes: chemical genetic growth profiling, strain panel (AID 1159580);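 note: tested at 20 µM; growth read once vehicle control cultures reached saturation at 30 °C; 1 = growth at the plate median or of vehicle wells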
Protocol Conditions: S. cerevisiae deletion strains, growth OD, locus YEL003W, strain gim4, stronger effect = lower value
The whole screen tested about 5,500 compounds, of which about 2,000 (36%) were called active. Inconclusive results (about 18%) are left out. This is one part of the list.

Here's what some known entries look like.
Q: Form field: reported normalized growth of O=C(O[C@@H]1Cc2c(O)cc(O)cc2O[C@@H]1c1cc(O)c(=O)c2c(O)c(O)cc([C@H]3Oc4cc(O)cc(O)c4C[C@H]3OC(=O)c3cc(O)c(O)c(O)c3)c2c1)c1cc(O)c(O)c(O)c1
Result: 0.527 (active)

Q: Find the recorded normalized growth belonging to COc1ccc2c(c1)CCC1C2CC[C@@]2(C)C1CC[C@@H]2O (stereo partly drawn) and report it.
Result: 0.842 (active)

More entries:
Q: For O=C(O[C@@H]1Cc2c(O)cc(O)cc2O[C@@H]1c1cc(O)c(=O)c2c(O)c(O)cc([C@H]3Oc4cc(O)cc(O)c4C[C@H]3O)c2c1)c1cc(O)c(O)c(O)c1 , what is its reported normalized growth?
Result: 0.659 (active)

====

Assay Notes: chemical genetic growth profiling, strain panel (AID 1159580);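 note: tested at 20 µM; growth read once vehicle control cultures reached saturation at 30 °C; 1 = growth at the plate median or of vehicle wells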
Protocol Conditions: S. cerevisiae deletion strains, growth OD, locus YOR061W, strain CKA2, stronger effect = lower value
Hit rate of the full screen: of about 5,500 compounds, about 2,000 (36%) were called active. Inconclusive results (about 18%) are left out. This is one part of the list.
This listing pairs molecules with measured normalized growth.

Q: Please look up its normalized growth: C[C@]12CCC3c4ccc(OS(=O)(=O)O)cc4CCC3C1CC[C@H]2O (some centres undefined)
Result: 0.986 (inactive)

Q: What does the data say about its normalized growth? Entry: O=C1/C(=C/c2ccccn2)CCc2ccccc21
Result: 0.934 (inactive)

Q: Entry COc1cc(OC)c2c(=O)c(OC)c(-c3ccc(OC)c(OC)c3)oc2c1 has what normalized growth?
Result: 1.01 (inactive)

Q: Consider the molecule shown here: C[C@@H]1O[C@@H](OC[C@H]2OC(Oc3c(-c4ccc(OCCO)c(OCCO)c4)oc4cc(OCCO)cc(O)c4c3=O)[C@H](O)[C@@H](O)[C@@H]2O)[C@H](O)[C@H](O)[C@H]1O (some centres undefined) What is its recorded normalized growth?
Result: 0.954 (inactive)

Q: GET /values?readout=normalized growth&item= CNC(C)C(O)c1ccccc1 (centres undefined)
Result: 1.01 (inactive)

Q: Field request: normalized growth | item: C[C@]12CCC3c4ccc(O)cc4CCC3C1C[C@@H](O)[C@@H]2O (some centres undefined)
Result: 0.973 (inactive)

---
Q: Tell me the measured normalized growth of O=c1c(O)c(-c2ccc(O)c(O)c2)oc2cc(O)cc(O)c12 , please.
Result: 0.939 (inactive)

Q: normalized growth lookup needed for Cc1cc(Oc2ccc(C(F)(F)F)cc2NS(C)(=O)=O)cc(C)c1Cl , thanks.
Result: 0.923 (inactive)
